Where these numbers come from: ChEMBL document CHEMBL2401658

# Assay System: 5-hydroxytryptamine receptor 1B (Homo sapiens, UniProt P28222)
# Sequence (P28222 whole entry): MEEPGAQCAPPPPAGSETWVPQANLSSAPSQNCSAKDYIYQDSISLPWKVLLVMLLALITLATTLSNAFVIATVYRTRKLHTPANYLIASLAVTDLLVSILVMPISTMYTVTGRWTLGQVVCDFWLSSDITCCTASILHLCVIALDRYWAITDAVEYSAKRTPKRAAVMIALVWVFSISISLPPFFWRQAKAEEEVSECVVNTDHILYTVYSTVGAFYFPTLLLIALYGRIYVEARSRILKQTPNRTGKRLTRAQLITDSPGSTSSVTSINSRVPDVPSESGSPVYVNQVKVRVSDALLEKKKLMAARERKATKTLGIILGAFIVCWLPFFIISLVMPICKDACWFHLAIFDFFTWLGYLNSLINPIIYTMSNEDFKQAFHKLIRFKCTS
Quantity Measured: Ki

>>> test_value("O=C(OCCN1CCCC1)N1c2ccccc2Sc2ccccc21")
"2200 nM"

====

# Assay System: UniProt P18825
# Sequence (P18825 whole entry): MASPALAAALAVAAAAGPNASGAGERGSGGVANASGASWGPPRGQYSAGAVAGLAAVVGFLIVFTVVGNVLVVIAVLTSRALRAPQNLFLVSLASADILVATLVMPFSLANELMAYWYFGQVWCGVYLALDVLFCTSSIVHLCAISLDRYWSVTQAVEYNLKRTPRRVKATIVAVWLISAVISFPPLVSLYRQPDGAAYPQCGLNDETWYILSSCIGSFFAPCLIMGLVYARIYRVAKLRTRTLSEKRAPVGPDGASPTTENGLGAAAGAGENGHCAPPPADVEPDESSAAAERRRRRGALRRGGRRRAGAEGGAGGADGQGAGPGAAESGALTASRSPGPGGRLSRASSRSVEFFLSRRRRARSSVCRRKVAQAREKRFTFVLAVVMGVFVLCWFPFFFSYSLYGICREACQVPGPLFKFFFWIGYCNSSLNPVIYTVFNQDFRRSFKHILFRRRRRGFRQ
Quantity Measured: Ki (nM)

>>> test_value("CCN(CC)CCCOC(=O)N1c2ccccc2Sc2ccccc21")
600
>>> test_value("O=C(OCCN1CCCC1)N1c2ccccc2Sc2ccccc21")
830
